IC50 values by entry
# System: HCT-116
# PROCEDURE_SUMMARY: Cytotoxicity against human HCT116 cells assessed as cell viability after 5 days by MTT assay relative to control
# Type: functional, cell-based
# CONDITIONS_USED: HCT-116, 120 h
Reply with just the number (in nM).

Q: Specify IC50 for CCCCCCC/C=C/C=C/C(=O)N[C@H](C(=O)N[C@H]1CCCCNC(=O)/C=C/[C@H](C)NC1=O)[C@@H](C)O [LUMINMYCIN A] , system HCT-116.
A: 91.8

***
Q: Specify IC50 for CCCCCCC/C=C/C=C/C(=O)N[C@H](C(=O)N[C@H]1C[C@@H](O)CCNC(=O)/C=C/[C@H](C)NC1=O)[C@@H](C)O [GLIDOBACTIN A] , system HCT-116.
A: 33.3
